test system: Clostridium perfringens; test: Competitive inhibition of Clostridium perfringens ATCC 10543 sialidase Nan1 c-terminal catalytic domain using 4-methylumbelliferyl-alpha-D-N-acetylneuraminic acid sodium salt hydrate as substrate by Lineweaver-Burk and Dixon plot analysis
I'd appreciate it if you marked entries t when Kic is lower than 0.9 µM and f when it is not.

1) CC(=O)O[C@H](CC=C(C)C)C1=CC(=O)c2c(O)ccc(O)c2C1=O	f
2) CC(C)=CC[C@@H](OC(=O)CC(C)(C)O)C1=CC(=O)c2c(O)ccc(O)c2C1=O [BETA-HYDROXYISOVALERYLSHIKONIN]	t
3) CC(C)=CCC(OC(=O)C=C(C)C)c1coc(-c2cc(O)ccc2O)c1 (centres undefined)	t
4) CC(C)=CCCC1=CC(=O)c2c(O)ccc(O)c2C1=O	f
5) CC(C)=CCC(OC(=O)C(C)C)c1coc(-c2cc(O)ccc2O)c1 (centres undefined)	t
6) CC(C)=CC[C@@H](O)C1=CC(=O)c2c(O)ccc(O)c2C1=O	f
7) CC(C)=CC[C@@H](OC(=O)C=C(C)C)C1=CC(=O)c2c(O)ccc(O)c2C1=O	t
8) CC(C)=CCC(OC(=O)CC(C)C)c1coc(-c2cc(O)ccc2O)c1 (centres undefined)	t

---

target: Neuraminidase (Influenza A virus (strain A/Brevig Mission/1/1918 H1N1) (Influenza Avirus (strain A/South Carolina/1/1918 H1N1)), UniProt Q9IGQ6); experiment: Inhibition of recombinant influenza A virus H1N1 A/Bervig_Mission/1/18 sialidase activity using 4-methylumbelliferyl-alpha-D-N-acetylneuraminic acid sodium salt hydrate as substrate by fluorimetric analysis
Sequence (Q9IGQ6 whole entry): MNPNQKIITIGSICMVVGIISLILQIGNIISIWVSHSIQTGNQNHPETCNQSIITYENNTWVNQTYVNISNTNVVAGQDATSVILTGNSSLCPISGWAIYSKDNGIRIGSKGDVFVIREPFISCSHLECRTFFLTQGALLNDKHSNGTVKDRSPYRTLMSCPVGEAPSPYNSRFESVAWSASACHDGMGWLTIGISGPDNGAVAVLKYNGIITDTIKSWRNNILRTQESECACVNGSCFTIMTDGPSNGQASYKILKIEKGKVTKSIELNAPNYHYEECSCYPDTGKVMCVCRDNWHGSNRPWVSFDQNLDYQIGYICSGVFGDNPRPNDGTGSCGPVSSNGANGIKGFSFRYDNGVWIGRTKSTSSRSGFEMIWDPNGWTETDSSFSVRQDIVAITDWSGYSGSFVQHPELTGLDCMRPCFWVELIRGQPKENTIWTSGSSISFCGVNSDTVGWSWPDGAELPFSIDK
// IC50 lookup, one value per entry
Reported Endpoint: IC50 (µM)

1. CC(C)=CC[C@@H](OC(=O)C=C(C)C)C1=CC(=O)c2c(O)ccc(O)c2C1=O	47.3
2. CC(=O)O[C@H](CC=C(C)C)C1=CC(=O)c2c(O)ccc(O)c2C1=O	41.4
3. CC(C)=CCCC1=CC(=O)c2c(O)ccc(O)c2C1=O	63.4
4. CC(C)=CC[C@@H](O)C1=CC(=O)c2c(O)ccc(O)c2C1=O	34.1
5. CC(C)=CC[C@@H](OC(=O)CC(C)(C)O)C1=CC(=O)c2c(O)ccc(O)c2C1=O [BETA-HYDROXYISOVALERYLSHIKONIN]	40.5
6. CC(C)=CC[C@@H](OC(=O)C(C)C)C1=CC(=O)c2c(O)ccc(O)c2C1=O	40.5

---

// IC50 lookup, one value per entry
test: Inhibition of alpha-glucosidase
Reported Endpoint: IC50

1. CC(C)=CCC(OC(=O)CC(C)C)c1coc(-c2cc(O)ccc2O)c1 (configuration not stated)	20.8 µM
2. CC(C)=CC[C@@H](OC(=O)C=C(C)C)C1=CC(=O)c2c(O)ccc(O)c2C1=O	141 µM
3. CC(C)=CCC(OC(=O)C=C(C)C)c1coc(-c2cc(O)ccc2O)c1 (configuration not stated)	26.6 µM
4. CC(C)=CC[C@@H](OC(=O)C(C)C)C1=CC(=O)c2c(O)ccc(O)c2C1=O	144 µM
5. CC(=O)O[C@H](CC=C(C)C)C1=CC(=O)c2c(O)ccc(O)c2C1=O	158 µM
6. OCC(CO)N[C@H]1C[C@](O)(CO)[C@@H](O)[C@H](O)[C@H]1O	23.4 µM
7. CC(C)=CCC(OC(=O)C(C)C)c1coc(-c2cc(O)ccc2O)c1 (configuration not stated)	37.8 µM

---

system: Clostridium perfringens; assay: Inhibition of Clostridium perfringens ATCC 10543 sialidase Nan1 c-terminal catalytic domain using 4-methylumbelliferyl-alpha-D-N-acetylneuraminic acid sodium salt hydrate as substrate at IC50 concentration pre-incubated for 10 mins prior substrate addition by fluorimetric analysis; details: TDE = time-dependent effect
Reported Endpoint: inhibition

1) CC(C)=CC[C@@H](OC(=O)C(C)C)C1=CC(=O)c2c(O)ccc(O)c2C1=O [ISOBUTYLSHIKONIN]	tde
2) CC(C)=CCCC1=CC(=O)c2c(O)ccc(O)c2C1=O [DEOXYSHIKONIN]	tde
3) CC(C)=CCC(OC(=O)C=C(C)C)c1coc(-c2cc(O)ccc2O)c1 (centres undefined) [SHIKONOFURAN E]	tde
4) CC(C)=CCC(OC(=O)C(C)C)c1coc(-c2cc(O)ccc2O)c1 (centres undefined) [SHIKONOFURAN D]	tde
5) CC(C)=CC[C@@H](OC(=O)C=C(C)C)C1=CC(=O)c2c(O)ccc(O)c2C1=O [DIMETHYLACRYLSHIKONIN]	tde
6) CC(C)=CC[C@@H](OC(=O)CC(C)(C)O)C1=CC(=O)c2c(O)ccc(O)c2C1=O [BETA-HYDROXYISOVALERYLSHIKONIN]	tde
7) CC(C)=CCC(OC(=O)CC(C)C)c1coc(-c2cc(O)ccc2O)c1 (centres undefined) [SHIKONOFURAN C]	tde
8) CC(=O)O[C@H](CC=C(C)C)C1=CC(=O)c2c(O)ccc(O)c2C1=O [ACETYLSHIKONIN]	tde
9) CC(C)=CC[C@@H](O)C1=CC(=O)c2c(O)ccc(O)c2C1=O [SHIKONIN]	tde

---

test system: Clostridium perfringens; experiment: Inhibition of Clostridium perfringens ATCC 10543 sialidase Nan1 c-terminal catalytic domain using 4-methylumbelliferyl-alpha-D-N-acetylneuraminic acid sodium salt hydrate as substrate by fluorimetric analysis
Reported Endpoint: inhibition

1) CC(C)=CC[C@@H](OC(=O)C=C(C)C)C1=CC(=O)c2c(O)ccc(O)c2C1=O	Dose-dependent effect
2) CC(=O)O[C@H](CC=C(C)C)C1=CC(=O)c2c(O)ccc(O)c2C1=O	Dose-dependent effect
3) CC(C)=CCC(OC(=O)CC(C)C)c1coc(-c2cc(O)ccc2O)c1 (centres undefined)	Dose-dependent effect
4) CC(C)=CC[C@@H](OC(=O)CC(C)(C)O)C1=CC(=O)c2c(O)ccc(O)c2C1=O [BETA-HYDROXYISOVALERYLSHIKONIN]	Dose-dependent effect
5) CC(C)=CC[C@@H](OC(=O)C(C)C)C1=CC(=O)c2c(O)ccc(O)c2C1=O	Dose-dependent effect
6) CC(C)=CCC(OC(=O)C=C(C)C)c1coc(-c2cc(O)ccc2O)c1 (centres undefined)	Dose-dependent effect
7) CC(C)=CC[C@@H](O)C1=CC(=O)c2c(O)ccc(O)c2C1=O	Dose-dependent effect
8) CC(C)=CCCC1=CC(=O)c2c(O)ccc(O)c2C1=O	Dose-dependent effect
9) CC(C)=CCC(OC(=O)C(C)C)c1coc(-c2cc(O)ccc2O)c1 (centres undefined)	Dose-dependent effect

---

test: Inhibition of Clostridium perfringens ATCC 10543 sialidase Nan1 c-terminal catalytic domain using 4-methylumbelliferyl-alpha-D-N-acetylneuraminic acid sodium salt hydrate as substrate by fluorimetric analysis
pIC50: −log10 of the molar value.
// pIC50 lookup, one value per entry
Reported Endpoint: pIC50

1) CC(C)=CCC(OC(=O)C(C)C)c1coc(-c2cc(O)ccc2O)c1 (centres undefined) [SHIKONOFURAN D]	6.00
2) CC(C)=CC[C@@H](OC(=O)C(C)C)C1=CC(=O)c2c(O)ccc(O)c2C1=O [ISOBUTYLSHIKONIN]	5.54
3) CC(C)=CC[C@@H](O)C1=CC(=O)c2c(O)ccc(O)c2C1=O [SHIKONIN]	4.27
4) CC(C)=CCCC1=CC(=O)c2c(O)ccc(O)c2C1=O [DEOXYSHIKONIN]	4.56
5) CC(=O)O[C@H](CC=C(C)C)C1=CC(=O)c2c(O)ccc(O)c2C1=O [ACETYLSHIKONIN]	5.60
6) CC(C)=CC[C@@H](OC(=O)CC(C)(C)O)C1=CC(=O)c2c(O)ccc(O)c2C1=O [BETA-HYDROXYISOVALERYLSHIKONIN]	5.47
7) CC(C)=CCC(OC(=O)CC(C)C)c1coc(-c2cc(O)ccc2O)c1 (centres undefined) [SHIKONOFURAN C]	6.22
8) CC(C)=CCC(OC(=O)C=C(C)C)c1coc(-c2cc(O)ccc2O)c1 (centres undefined) [SHIKONOFURAN E]	6.70
9) CC(C)=CC[C@@H](OC(=O)C=C(C)C)C1=CC(=O)c2c(O)ccc(O)c2C1=O [DIMETHYLACRYLSHIKONIN]	5.72

---

// pKi lookup, one value per entry
experiment: Reversible inhibition of Clostridium perfringens ATCC 10543 sialidase Nan1 c-terminal catalytic domain using 4-methylumbelliferyl-alpha-D-N-acetylneuraminic acid sodium salt hydrate as substrate compound pre-incubated prior to substrate addition by fluorimetric analysis; conditions: read-out: Ki(app)
pKi: −log10 of the molar value.
Reported Endpoint: pKi

1. CC(C)=CCC(OC(=O)CC(C)C)c1coc(-c2cc(O)ccc2O)c1 (centres undefined)	6.82
2. CC(=O)O[C@H](CC=C(C)C)C1=CC(=O)c2c(O)ccc(O)c2C1=O	6.00
3. CC(C)=CC[C@@H](O)C1=CC(=O)c2c(O)ccc(O)c2C1=O	4.23
4. CC(C)=CC[C@@H](OC(=O)C=C(C)C)C1=CC(=O)c2c(O)ccc(O)c2C1=O	5.76
5. CC(C)=CCC(OC(=O)C=C(C)C)c1coc(-c2cc(O)ccc2O)c1 (centres undefined)	7.30
6. CC(C)=CC[C@@H](OC(=O)C(C)C)C1=CC(=O)c2c(O)ccc(O)c2C1=O	6.59
7. CC(C)=CC[C@@H](OC(=O)CC(C)(C)O)C1=CC(=O)c2c(O)ccc(O)c2C1=O [BETA-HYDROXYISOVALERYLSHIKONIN]	5.65
8. CC(C)=CCC(OC(=O)C(C)C)c1coc(-c2cc(O)ccc2O)c1 (centres undefined)	6.68
9. CC(C)=CCCC1=CC(=O)c2c(O)ccc(O)c2C1=O	4.92
